Just for reference, ChEMBL document CHEMBL1139690 is where these values come from.

Below is a list of entries, each paired with its recorded Ki value.
# target_under_test: Prostaglandin E2 receptor EP2 subtype (Homo sapiens, UniProt P43116)
# Sequence (P43116 whole entry): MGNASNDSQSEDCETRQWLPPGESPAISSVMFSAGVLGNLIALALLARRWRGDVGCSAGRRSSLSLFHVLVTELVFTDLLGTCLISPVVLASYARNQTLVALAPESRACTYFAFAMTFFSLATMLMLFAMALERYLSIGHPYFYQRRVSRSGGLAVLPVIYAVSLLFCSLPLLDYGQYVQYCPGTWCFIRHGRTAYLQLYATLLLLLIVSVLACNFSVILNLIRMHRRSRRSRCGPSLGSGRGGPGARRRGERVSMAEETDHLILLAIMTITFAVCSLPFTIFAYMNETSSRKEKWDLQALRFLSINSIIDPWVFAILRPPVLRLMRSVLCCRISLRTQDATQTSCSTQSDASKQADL
# test: Binding affinity to EP2 receptor
measured_metric: Ki

- smiles_data: "Cc1ccc(OCc2c(Cl)cccc2Cl)c(/C=C/Cc2ccccc2/C=C/C(=O)O)c1"
  measured_metric: "Ki"
  result: "5.4 µM (antagonist)"
- smiles_data: "O=C(/C=C/c1ccccc1C/C=C/c1ccccc1)NS(=O)(=O)c1cccs1"
  measured_metric: "Ki"
  result: "8 µM (antagonist)"
- smiles_data: "COc1ccc(C/C=C/c2ccccc2/C=C/C(=O)NS(=O)(=O)c2cccs2)cc1"
  measured_metric: "Ki"
  result: "6.5 µM (antagonist)"
- smiles_data: "Cc1ccc(OCc2ccccc2)c(CCCc2ccccc2CCC(=O)O)c1"
  measured_metric: "Ki"
  result: "0.94 µM (antagonist)"
- smiles_data: "COc1cc(/C=C/Cc2ccccc2/C=C/C(=O)NS(=O)(=O)c2cccs2)ccc1OCc1ccccc1"
  measured_metric: "Ki"
  result: "8.7 µM (antagonist)"
- smiles_data: "O=C(/C=C/c1ccccc1/C=C/Cc1ccccc1)NS(=O)(=O)c1cccs1"
  measured_metric: "Ki"
  result: "8 µM (antagonist)"
- smiles_data: "Cc1ccc(OCc2ccccc2)c(C/C=C/c2ccccc2/C=C/C(=O)NS(=O)(=O)c2cccs2)c1"
  measured_metric: "Ki"
  result: "2.1 µM (antagonist)"
- smiles_data: "COc1ccc(/C=C/Cc2ccccc2/C=C/C(=O)O)cc1"
  measured_metric: "Ki"
  result: "2.5 µM (antagonist)"
- smiles_data: "O=C(/C=C/c1ccccc1Cc1ccc2cc(OCc3ccccc3)ccc2c1)NS(=O)(=O)c1cccs1"
  measured_metric: "Ki"
  result: "8 µM (antagonist)"
- smiles_data: "Cc1ccc(OCc2ccccc2)c(/C=C/Cc2ccccc2/C=C/C(=O)O)c1"
  measured_metric: "Ki"
  result: "0.86 µM (antagonist)"
- smiles_data: "COc1cc(/C=C/Cc2ccccc2/C=C/C(=O)O)ccc1OCc1ccccc1"
  measured_metric: "Ki"
  result: "0.75 µM (antagonist)"
- smiles_data: "Cc1ccc(OCc2ccccc2)c(C/C=C/c2ccccc2/C=C/C(=O)O)c1"
  measured_metric: "Ki"
  result: "0.86 µM (antagonist)"
- smiles_data: "COc1ccc(/C=C/Cc2ccccc2/C=C/C(=O)NS(=O)(=O)c2cccs2)cc1"
  measured_metric: "Ki"
  result: "6.5 µM (antagonist)"
- smiles_data: "O=C(O)/C=C/c1ccccc1C/C=C/c1ccccc1"
  measured_metric: "Ki"
  result: "1.4 µM (antagonist)"
- smiles_data: "Cc1ccc(OCc2ccccc2)c(CCCc2ccccc2CCC(=O)NS(=O)(=O)c2cccs2)c1"
  measured_metric: "Ki"
  result: "1.6 µM (antagonist)"
- smiles_data: "Cc1ccc(OCc2ccccc2)c(/C=C/Cc2ccccc2/C=C/C(=O)NS(=O)(=O)c2cccs2)c1"
  measured_metric: "Ki"
  result: "2.1 µM (antagonist)"
- smiles_data: "COc1cc(C/C=C/c2ccccc2/C=C/C(=O)NS(=O)(=O)c2cccs2)ccc1OCc1ccccc1"
  measured_metric: "Ki"
  result: "8.7 µM (antagonist)"
- smiles_data: "O=C(/C=C/c1ccccc1Cc1ccc2ccccc2c1)NS(=O)(=O)c1cccs1"
  measured_metric: "Ki"
  result: "8.6 µM (antagonist)"
- smiles_data: "O=C(O)/C=C/c1ccccc1Cc1ccc2cc(OCc3ccccc3)ccc2c1"
  measured_metric: "Ki"
  result: "> 40 µM"
